meta.source: paper PMC9838217

System Tested: SALL4 ZFC4 R900W (HT-SELEX) (Mus musculus, UniProt Q8BX22 870-940, R900W)
Sequence: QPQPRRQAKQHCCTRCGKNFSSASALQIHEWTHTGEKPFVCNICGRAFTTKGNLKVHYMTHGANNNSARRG
Assay Details: HT-SELEX; high values mean tight binding
Test Settings: protein: recombinant; vector His6-GST; dsDNA, one strand shown
Parameter Measured: binding signal (fold-change vs cycle 0)
Express your answer in fold-change vs cycle 0, writing the number without its unit.

Lab book: binding signal of GGAAGA noted as 1.12

Lab book: binding signal of ACCAAT noted as 1.33

Lab book: binding signal of ACTGAG noted as 1.01

Lab book: binding signal of ACTCCA noted as 1.03
